# System: U2OS
# Run Description: Multiplex assay against U2OS
# Format: toxicity, cell-based
# Study Conditions: human, 48 h, 10 µM, compound concentration 10 uM, replicate 1
Parameter: Population Hoechst High Intensity Objects (%)
Please state the value followed by its unit.

Please review the following examples before continuing.
Request: Please look up its Population Hoechst High Intensity Objects (%): `COc1cc(C(=O)N2CC[C@@H](O)[C@@H](N)C2)cc2nc(-c3cc4ccccc4n3CC3CC3)n(C)c12.Cl`
Result: 12%

Request: Please report the recorded Population Hoechst High Intensity Objects (%) for `CC(C)(O)C(=O)N1CCN(c2ccc(C(F)(F)F)c(C3=C(c4c[nH]c5ccccc45)C(=O)NC3=O)c2)CC1` .
Result: 14%

Request: Bench note: what Population Hoechst High Intensity Objects (%) did CCC(=O)OCC(=O)[C@@]1(OC(=O)CC)[C@@H](C)C[C@H]2[C@@H]3CCC4=CC(=O)C=C[C@]4(C)[C@@]3(Cl)[C@@H](O)C[C@@]21C [BECLOMETHASONE DIPROPIONATE] show?
Result: 4%

Request: Given Cc1cc(NC(=O)NCCN2CCC(O)(Cc3ccccc3)CC2)c2ccccc2n1 [PALOSURAN] , state its recorded Population Hoechst High Intensity Objects (%).
Result: 1%

Request: Population Hoechst High Intensity Objects (%) for O=c1nc2[nH]c3ccccc3nc-2c(=O)[nH]1 [ALLOXAZINE] ?
Result: 1%

Request: Would you mind telling me what Population Hoechst High Intensity Objects (%) value was observed for CCn1c(-c2nc3cc(C(=O)N4CCCC(N)C4)ccc3n2C)cc2ccccc21.Cl (stereo not drawn) ?
Result: 5%

Request: # lookup: Population Hoechst High Intensity Objects (%) of CC(C)C[C@H](CO)Nc1nc(S[C@@H](C)c2ccccc2)nc2nc(N)sc12 [AZD-8797]
Result: 4%

Request: Population Hoechst High Intensity Objects (%) lookup needed for `Cc1sc2c(c1C)C(c1ccc(Cl)cc1)=N[C@H](CC(=O)OC(C)(C)C)c1nnc(C)n1-2` , thanks.
Result: 2%

Request: What does the data say about its Population Hoechst High Intensity Objects (%)? Entry: `S=C(NCCCc1c[nH]cn1)NCCCN(Cc1ccc(Cl)c(Cl)c1)c1ccc(Br)cn1`
Result: 21%

Request: Find the recorded Population Hoechst High Intensity Objects (%) belonging to CN1CCN2c3ccccc3Cc3ccccc3C2C1.Cl (stereo not drawn) [MIANSERIN HYDROCHLORIDE] and report it.
Result: 4%

Return reported Population Hoechst High Intensity Objects (%) values for all items listed beneath this line.
1. Nc1nc(-c2ccco2)c2cnn(Cc3ccccc3F)c2n1
2. Cc1ccc(OCC(O)C(C)NC(C)C)c2c1CCC2.Cl (stereo not drawn)
3. CCc1nn2c(C)cc(C)nc2c1Cc1ccc(-c2nnc(C3CCNCC3)o2)cc1
4. C[C@H](NC(=O)CNC(=O)c1cccc(Cl)c1)c1ccccc1
5. Cc1cc(-c2ccc3c(c2)CC[C@H]3N2CC3(CCN(C(=O)Cc4cn5cc(C)sc5n4)CC3)C2)ncn1 [PF-5190457]
6. CN(C)C(=O)Cn1cc(-c2ccc(-c3nnc4ccccn34)cc2)cn1
7. CC(C)(C)c1ccc(CSc2cnn(C(C)(C)C)c(=O)c2Cl)cc1 [PYRIDABEN]

Result:
1: 11%; 2: 4%; 3: 2%; 4: 2%; 5: 3%; 6: 3%; 7: 4%

Request: Sample `COCCn1c(C)c(C)s/c1=N\C(=O)C1C(C)(C)C1(C)C` — what was its Population Hoechst High Intensity Objects (%)?
Result: 2%

###

# Tested on: HEK-293T
# Run Description: Multiplex assay against HEK293T
# Format: toxicity, cell-based
# Study Conditions: human, 24 h, 10 µM, compound concentration 10 uM, replicate 2
Parameter: Population Fragmented Nuclei (%)
Lab note: write values as number then unit, every time.

Batch request: Population Fragmented Nuclei (%) per item, same order as input.
1. CCCCCCNC(=O)Nc1ccc(S(=O)(=O)Nc2ccc(CCNC[C@H](O)COc3ccc(O)cc3)cc2)cc1
2. N[C@](CC1c2ccccc2Oc2ccccc21)(C(=O)O)[C@H]1C[C@@H]1C(=O)O
3. CN1C[C@H](C(=O)N[C@]2(C)O[C@@]3(O)[C@@H]4CCCN4C(=O)[C@H](Cc4ccccc4)N3C2=O)C[C@@H]2c3cccc4[nH]cc(c34)C[C@H]21.CS(=O)(=O)O [DIHYDROERGOTAMINE MESYLATE]
4. CN(C)C/C=C/C(=O)Nc1ccc(C(=O)N2CCCC(Nc3ncc(Cl)c(-c4c[nH]c5ccccc45)n3)C2)cc1 (centres undefined)

Result:
1: 7%; 2: 6%; 3: 9%; 4: 10%

###

# Tested on: HEK-293T
# Run Description: Multiplex assay against HEK293T
# Assay type: toxicity, cell-based
# Study Conditions: human, 48 h, 10 µM, compound concentration 10 uM, replicate 1
Parameter: Population Mitochondria Different-Phenotype (%)

Previously resolved entries follow.
Request: Any idea what Population Mitochondria Different-Phenotype (%) was measured for `COc1cc(Nc2ncc3c(n2)-c2ccc(Cl)cc2C(c2c(F)cccc2OC)=NC3)ccc1C(=O)O` ?
Result: 57%

Request: Entry `COCCn1c(C)c(C)s/c1=N\C(=O)C1C(C)(C)C1(C)C` has what Population Mitochondria Different-Phenotype (%)?
Result: 30%

Request: Using the record for `COc1cc(C(=O)N2CC[C@@H](O)[C@@H](N)C2)cc2nc(-c3cc4ccccc4n3CC3CC3)n(C)c12.Cl` , report its Population Mitochondria Different-Phenotype (%).
Result: 89%

New cases:
Request: Look up Population Mitochondria Different-Phenotype (%) for this compound: `CC(C)(O)C(=O)N1CCN(c2ccc(C(F)(F)F)c(C3=C(c4c[nH]c5ccccc45)C(=O)NC3=O)c2)CC1`
Result: 53%

###

# Tested on: U2OS
# Run Description: Multiplex assay against U2OS
# Assay type: toxicity, cell-based
# Study Conditions: human, 48 h, 1 µM, compound concentration 1 uM, replicate 2
Use Population Membrane Permeable-Phenotype (%) to assign classes; range list: interval 1 (below 5%), interval 2 (5% to below 7%), interval 3 (7% or more)

A selection of reference data follows.
Request: Hi, small favor: classify Cc1cc(-c2ccc3c(c2)CC[C@H]3N2CC3(CCN(C(=O)Cc4cn5cc(C)sc5n4)CC3)C2)ncn1 [PF-5190457] by its Population Membrane Permeable-Phenotype (%) when you get a moment.
Result: interval 1

Request: Band of O=C(O)CCC/C=C\CC1C(O)CC(O)C1/C=C/C(O)COc1cccc(Cl)c1 (stereo not drawn) [CLOPROSTENOL] ?
Result: interval 2

Request: Lab log: `C[C@@H]1CC(=O)Nc2cccc(-c3ccc4c(c3)c(-c3cnn(C)c3)nn4C)c2N1` — assign Population Membrane Permeable-Phenotype (%) category
Result: interval 1

Request: Using the reported Population Membrane Permeable-Phenotype (%), which band applies to CN1C[C@H](C(=O)N[C@]2(C)O[C@@]3(O)[C@@H]4CCCN4C(=O)[C@H](Cc4ccccc4)N3C2=O)C[C@@H]2c3cccc4[nH]cc(c34)C[C@H]21.CS(=O)(=O)O [DIHYDROERGOTAMINE MESYLATE] ?
Result: interval 2

Request: Please indicate the class for COCCCN1CCC(NC(=O)c2cc(Cl)c(N)c3c2OCC3)CC1 [PRUCALOPRIDE] based on its Population Membrane Permeable-Phenotype (%).
Result: interval 3

---
Request: Class (by measured Population Membrane Permeable-Phenotype (%)) for CN1CCN2c3ccccc3Cc3ccccc3C2C1.Cl (stereo not drawn) [MIANSERIN HYDROCHLORIDE]
Result: interval 1

Request: Which Population Membrane Permeable-Phenotype (%) band matches `COc1cc(OC2CCN(C(C)=O)CC2)ccc1C(=O)N1CCC(N2C(=O)OCc3ccccc32)CC1` ?
Result: interval 3

###

# Tested on: HEK-293T
# Run Description: Multiplex assay against HEK293T
# Type: toxicity, cell-based
# Study Conditions: human, 48 h, 10 µM, compound concentration 10 uM, replicate 1
just bin them by Total Cell Count: label 0 = under 500, label 1 = from 500 up to 700, label 2 = 700 and over

A selection of reference data follows.
Request: Exam item: assign `Nc1nc(-c2ccco2)c2cnn(Cc3ccccc3F)c2n1` to the correct category.
Result: label 0

Request: Which bin, given its Total Cell Count, does `Cc1cc(NC(=O)NCCN2CCC(O)(Cc3ccccc3)CC2)c2ccccc2n1` occupy?
Result: label 2

Request: Textbook exercise: identify the category of the compound given here, `COc1cc2nc(N3CCN(C(=O)COc4c(OC)cccc4C(C)C)CC3)nc(N)c2cc1OC.Cl.Cl` , according to its measured value.
Result: label 1

Request: Category of `Cc1c(Cc2ccc3ccccc3n2)c2cc(F)ccc2n1CC(=O)O` , please.
Result: label 2

Further cases:
Request: Which class holds `COc1ccc2c(c1OCc1ccccc1)C[C@@H](C(=O)O)N(C(=O)C(c1ccccc1)c1ccccc1)C2` ?
Result: label 1
